Please provide measured log10 of α-Olefin for the entries that follow.
- System: OleT
- method-summary: Decarboxylation of FAs C22 to C4 employing the FDH-CamAB-OleT redox-cascade
- Assay type: biochemical
- test-conditions: 25 °C, 24 h, 10 mM substrate
Friendly reminder: values = log10 of α-Olefin, unit µM.

The examples below pair each entry with its known result.
molecular_string=CCCCCCCC(=O)O measured_attribute="log10 of α-Olefin" obs_value=2.56
molecular_string=CCCCCCCCCCCC(=O)O measured_attribute="log10 of α-Olefin" obs_value=2.44
molecular_string=CCCCCC(=O)O measured_attribute="log10 of α-Olefin" obs_value=3.07
molecular_string=CCCCCCCCCCCCCCCCCC(=O)O measured_attribute="log10 of α-Olefin" obs_value=3.59
molecular_string=CCCCC(=O)O measured_attribute="log10 of α-Olefin" obs_value=2.92
molecular_string=CCCCCCCCCCCCCCCC(=O)O measured_attribute="log10 of α-Olefin" obs_value=3.05
molecular_string=CCCCCCCCC(=O)O measured_attribute="log10 of α-Olefin" obs_value=3.26
molecular_string=CCCCCCCCCC(=O)O measured_attribute="log10 of α-Olefin" obs_value=1.64
molecular_string=CCCC(=O)O measured_attribute="log10 of α-Olefin" obs_value=2.70

Now let's try a different one.
response.value for CCCCCCC(=O)O (field: log10 of α-Olefin) = 3.11
